Experiment: Leishmania major promastigote growth inhibition, primary screen (AID 1063);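 also: promastigotes grown with compound for 44 hours at 28 °C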
Conditions: Leishmania major promastigotes, resazurin fluorescence viability; at 10 µM; hits give high values
Among all 200,000 compounds or so, about 18,000 (9%) were called active. The list comes from a sample in which actives are over-represented; it also holds close analogues and randomly drawn compounds.
property.measured: inhibition (%)

[
  {
    "compound": "CCc1c(O)cc2n(c1=O)-c1ccccc1C2(C)C",
    "unit": "%",
    "reported": 51.1
  },
  {
    "compound": "COC(C(=O)NCc1ccccc1C)c1ccccc1 (stereo unspecified)",
    "unit": "%",
    "reported": -3.9
  },
  {
    "compound": "CCc1c(O)nc(SCC(=O)N2CCCCC2)n(-c2ccccc2C)c1=O",
    "unit": "%",
    "reported": 1
  },
  {
    "compound": "Cc1ccc(F)cc1NC(=O)c1ccc2c(c1)OCO2",
    "unit": "%",
    "reported": -6.66
  },
  {
    "compound": "CCOC(=O)NC(=O)/C(C#N)=C\\c1ccccc1",
    "unit": "%",
    "reported": -7
  },
  {
    "compound": "Cc1cc(N2CCOCC2)nc2ccc(NC(=S)N3CCN(Cc4ccccc4)CC3)cc12",
    "unit": "%",
    "reported": 36.5
  },
  {
    "compound": "CC(=O)c1c(O)cc2n(c1=O)-c1ccc(Cl)cc1C2(C)C",
    "unit": "%",
    "reported": -6.77
  },
  {
    "compound": "Cc1nc(N2CCC(C)CC2)c2c(C)c(C(=O)Nc3cc(F)ccc3C)sc2n1",
    "unit": "%",
    "reported": 72.2
  },
  {
    "compound": "COC(C(=O)Nc1ccc(C(C)=O)cc1)c1ccccc1 (stereo unspecified)",
    "unit": "%",
    "reported": -5.21
  },
  {
    "compound": "CCOC(=O)C1CCCN(C(=O)c2sc3nc(C)nc(N4CCOCC4)c3c2C)C1 (stereo unspecified)",
    "unit": "%",
    "reported": -2.76
  },
  {
    "compound": "Cc1ccnc(N2CCCC(C(=O)Nc3cc(F)ccc3C)C2)n1 (stereo unspecified)",
    "unit": "%",
    "reported": -1.61
  }
]
